Every entry's value here was drawn from patent US20160143998A1.

Assay System: T1, human GLP-1 receptor (human, UniProt P43220 24-463)
T1 construct: whole, on cells
Test Summary: SPA competition vs 125I-GLP-1(7-36)NH2, hGLP-1R BHK membranes, high HSA (2.0%)
*1 amine or outer side, *2 acyl side, *3 side chain or, on linkers, in order; H or OH if unused. Where no end group is shown, it is not given here. Side-chain parts run from the residue outwards. [ ]: non-standard residue; d: D form. The star is where a group is joined. code 2xAEEA = O=C(COCCOCCN[*:1])NCCOCCOCC(=O)[*:2]; C20 diacid = O=C(O)CCCCCCCCCCCCCCCCCCC(=O)*; γGlu = O=C(O)[C@H](CCC(=O)[*:2])N[*:1]; Trx = NC[C@H]1CC[C@H](C(=O)O)CC1; code LysOEG = not defined here; Lys(Bis) = not defined here; AEEA = NCCOCCOCC(=O)O; Aib = CC(C)(N)C(=O)O
Entries and their pIC50
In textbook form, pIC50 equals minus log to base ten of the concentration in mol/L.

Worked set:
H[Aib]EGTFTSDVSSYLEEQAAREFIAWLVRGRGK([code LysOEG-AEEA-γGlu-C20 diacid)(OEG-AEEA-γGlu-C20 diacid]) (reading uncertain; also: printed as N{Alpha}([Aib8,Glu22,Arg26,Arg34]-GLP-1-(7-37)-peptidyl)-N{Epsilon}[(2S)-2,6-bis[[2-[2-[2-[[2-[2-[2-[[(4S)-4-carboxy-4-(19-carboxynonadecanoylamino)butanoyl]amino]ethoxy]ethoxy]acetyl]amino]ethoxy]ethoxy]acetyl]amino]hexanoyl]Lys, Side chain read from the name: eps-Lys(Bis) branched linker, each leg C20 diacid-gGlu-2xOEG) = 7.19
H[Aib]EGTFTSDVSSYLEEQAAREFIAWLVRGRGPAEEK([Lys(Bis)-code 2xAEEA-AEEA-γGlu-Trx-C20 diacid]) (reading uncertain, Side chain read from the name: eps-Lys(Bis) branched linker, each leg C20 diacid-Trx-gGlu-2xOEG) = 7.17
H[Aib]EGTFTSDVSSYLEEQAAREFIAWLVRGRGGGGSK([code LysOEG-AEEA-γGlu-Trx-C20 diacid)(OEG-AEEA-γGlu-Trx-C20 diacid]) (reading uncertain, Side chain read from the name: eps-Lys(Bis) branched linker, each leg C20 diacid-Trx-gGlu-2xOEG) = 6.76
H[Aib]EGTFTSDVSSYLEEQAAREFIAWLVRGRGSSPAAK([Lys(Bis)-code 2xAEEA-AEEA-γGlu-Trx-C20 diacid]) (reading uncertain, Side chain read from the name: eps-Lys(Bis) branched linker, each leg C20 diacid-Trx-gGlu-2xOEG) = 7.29
H[Aib]EGTFTSDVSSYLEEQAAREFIAWLVRGRGAEAPK([code LysOEG-AEEA-γGlu-Trx-C20 diacid)(OEG-AEEA-γGlu-Trx-C20 diacid]) (reading uncertain, Side chain read from the name: eps-Lys(Bis) branched linker, each leg C20 diacid-Trx-gGlu-2xOEG) = 7.57
H[Aib]EGTFTSDVSSYLEEQAAREFIAWLVRGRGSK([Lys(Bis)-code 2xAEEA-AEEA-γGlu-Trx-C20 diacid]) (reading uncertain; also: printed as [Aib8,Glu22,Arg26,Arg34]-GLP-1-(7-37)-peptidyl-Ser-N{Epsilon}[(2S)-2,6-bis[[2-[2-[2[[2-[2-[2-[[(4S)-4-carboxy-4-[[4-[(19-carboxynonadecanoylamino)methyl]cyclohexanecarbonyl]amino]butanoyl]amino]ethoxy]ethoxy]acetyl]amino]ethoxy]ethoxy]acetyl]amino]hexanoyl]Lys, Side chain read from the name: eps-Lys(Bis) branched linker, each leg C20 diacid-Trx-gGlu-2xOEG) = 7.08

Request: Suppose we examine the binder H[Aib]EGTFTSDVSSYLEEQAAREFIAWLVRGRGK (not fully specified (residue 32); printed as N{Alpha}([Aib8,Glu22,Arg26,Arg34]-GLP-1-(7-37)-peptidyl)-N{Epsilon}[(2S)-2,6-bis[[2-[2-[2-[[2-[2-[2-[[(4S)-4-carboxy-4-[[1-(19-carboxynonadecanoyl)piperidine-4-carbonyl]amino]butanoyl]amino]ethoxy]ethoxy]acetyl]amino]ethoxy]ethoxy]acetyl]amino]hexanoyl]Lys, Side chain read from the name: eps-Lys(Bis) branched linker, each leg C20 diacid-Inp-gGlu-2xOEG) ; what pIC50 value has been reported?
Response: 7.17

Request: Suppose we examine the binder H[Aib]EGTFTSDVSSYLEEQAAREFIAWLVRGRGSSEAEK([Lys(Bis)-code 2xAEEA-AEEA-γGlu-Trx-C20 diacid]) (reading uncertain, Side chain read from the name: eps-Lys(Bis) branched linker, each leg C20 diacid-Trx-gGlu-2xOEG) ; what pIC50 value has been reported?
Response: 7.07
